Below is a list of entries, each paired with its recorded MIC value.
Tested on: Staphylococcus aureus
Test name: Antimicrobial activity against Staphylococcus aureus ATCC 29213 in absence of 4% BSA by broth macrodilution method
Type: functional
Measured attribute: MIC (µg/mL)

Compound	Experimental system	Measured attribute	Quantity unit	Recorded value
COC(=O)C(CCCNC(=N)N)NC(=O)C(CCCNC(=N)N)NC(=O)COc1cc2oc3cc(OCC(=O)NC(CCCNC(=N)N)C(=O)NC(CCCNC(=N)N)C(=O)OC)c(OC)c(CC=C(C)C)c3c(=O)c2c(O)c1CC=C(C)C (centres undefined)	Staphylococcus aureus	MIC	µg/mL	3.12
COC(=O)[C@H](CCCNC(=N)N)NC(=O)COc1cc2oc3cc(OCC(=O)N[C@@H](CCCNC(=N)N)C(=O)OC)c(OC)c(CC=C(C)C)c3c(=O)c2c(O)c1CC=C(C)C	Staphylococcus aureus	MIC	µg/mL	1.56
CN[C@H](CC(C)C)C(=O)N[C@H]1C(=O)N[C@@H](CC(N)=O)C(=O)N[C@H]2C(=O)N[C@H]3C(=O)N[C@H](C(=O)N[C@H](C(=O)O)c4cc(O)cc(O)c4-c4cc3ccc4O)[C@H](O)c3ccc(c(Cl)c3)Oc3cc2cc(c3O[C@@H]2O[C@H](CO)[C@@H](O)[C@H](O)[C@H]2O[C@H]2C[C@](C)(N)[C@H](O)[C@H](C)O2)Oc2ccc(cc2Cl)[C@H]1O [VANCOMYCIN]	Staphylococcus aureus	MIC	µg/mL	0.78
CCCCCCCCCC(=O)N[C@@H](Cc1c[nH]c2ccccc12)C(=O)N[C@H](CC(N)=O)C(=O)N[C@@H](CC(=O)O)C(=O)N[C@@H]1C(=O)NCC(=O)N[C@@H](CCCN)C(=O)N[C@@H](CC(=O)O)C(=O)N[C@H](C)C(=O)N[C@@H](CC(=O)O)C(=O)NCC(=O)N[C@H](CO)C(=O)N[C@@H]([C@H](C)CC(=O)O)C(=O)N[C@@H](CC(=O)c2ccccc2N)C(=O)O[C@@H]1C	Staphylococcus aureus	MIC	µg/mL	0.39

Source listed as ChEMBL document CHEMBL3414569.
